B1: library; numbered along this chain (parent)
chain: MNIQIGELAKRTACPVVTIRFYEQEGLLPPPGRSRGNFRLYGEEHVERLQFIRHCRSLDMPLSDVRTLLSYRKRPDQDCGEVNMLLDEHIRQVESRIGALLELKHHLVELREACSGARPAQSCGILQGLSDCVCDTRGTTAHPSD

# Variants of: B1
# test.name: sfGFP reporter fluorescence (15 h) (µM FITC); higher = stronger transcriptional activation
# recorded.conditions: library round: Round 0; ligand: 1 µM Pb
Quick rule for you: sfGFP reporter fluorescence at 0.06 or higher means 1, lower means -1.

mutation_name=V108H assigned_class=1
mutation_name="D64K K104V" assigned_class=1
mutation_name="P61N G128M" assigned_class=1
mutation_name=I90D assigned_class=-1
mutation_name=Y41G assigned_class=-1
mutation_name=E94S assigned_class=1
mutation_name=G36F assigned_class=1
mutation_name="M60L P61N" assigned_class=1
mutation_name=S70A assigned_class=1
mutation_name=G128W assigned_class=1
mutation_name=C123I assigned_class=-1
mutation_name=C79G assigned_class=-1
mutation_name=E112I assigned_class=1
mutation_name="M60L P61N D64K" assigned_class=1
mutation_name=E7C assigned_class=1
mutation_name=I90R assigned_class=1
mutation_name=C79R assigned_class=1
mutation_name=E43S assigned_class=1
mutation_name=D131M assigned_class=1
mutation_name=L126G assigned_class=-1
mutation_name=D135W assigned_class=1
mutation_name=L126I assigned_class=-1
mutation_name=P30Y assigned_class=1
mutation_name=L68A assigned_class=1
mutation_name=P30D assigned_class=1
mutation_name=R20H assigned_class=1
mutation_name=L100A assigned_class=1
mutation_name=E112Q assigned_class=1
mutation_name=R33L assigned_class=1
mutation_name="L107C G128M" assigned_class=1
mutation_name=P15M assigned_class=1
mutation_name=L107V assigned_class=1
mutation_name=V82K assigned_class=-1
